system: SK-MEL-2 melanoma; assay: NCI-60 one-dose screen, 48 h (100 = growth as untreated, 0 = no growth, -100 = all killed); settings: 10 µM unless noted
About 83,000 compounds went through this panel and 20% of them were active in at least one assay; those are over-represented in the sample as a whole.
As shown below, each of these molecules has a reported growth value.
The figure you give is taken to be in %; do not add the unit.

Answered examples (5):
Recall and state the measured growth for COc1cc(OC)c(NC(=O)c2cc3ccccc3cc2O)cc1Cl .
15.4

Tell us which growth value is on record for C=CCn1c(C)nc2ccc(Nc3nc(Nc4ccc5nc(C)n(CC=C)c5c4)c4ccccc4n3)cc21
-83.8

Determine from records and report growth for CN(C)Cc1ccc(O)c(C(=O)O)c1
124

Give growth for the following molecule: CC1(C)CC(=O)C2=C(C1)N(c1ccc(OC(F)(F)F)cc1)C(N)=C(C#N)C2c1ccc(Br)cc1F (stereo not given)
88.6

Quick one: give measured growth for Cc1nc2sc(C(=O)Nc3cccc(Br)c3)c(N)c2cc1C(O)c1ccccc1 (stereo not given)
47.2

More entries:
Quick one: give measured growth for Nc1nc(-c2ccc(Cl)cc2)nc2c1sc(=S)n2-c1ccccc1
83.7

# return recorded growth for input COC1=CC(c2ccc[nH]2)=N/C1=C\c1[nH]c(C)c(CC(=O)NCc2ccccc2)c1C
16.7

Check the records and state growth for Cn1ccnc1C(=O)/C=C/c1ccc(C(=O)Nc2ccccc2O)cc1
78

Fill in reported growth for this entry: CCN1C(=S)N(c2ccccc2)C2NC(=S)N(/N=C/C=C/c3ccccc3OC)C21 (stereo not given)
32.8

Supply reported growth belonging to this molecule: CCN(CC)Cc1cc(C=C2C(=O)NC(=S)NC2=O)cc(OC)c1O
119

Let me know recorded growth for O=C(CSc1nnc(-c2cnccn2)n1-c1ccccc1)c1ccc(Cl)cc1 , thanks.
96.4

# return recorded growth for entry CN(C)S(=O)(=O)c1cccc(C(=O)Nc2nc(-c3ccc(F)c(F)c3)cs2)c1
32.2

Indicate the recorded growth value for this molecule: COc1cc(-c2nccc3[nH]c(-c4ccc5cc[nH]c5c4)nc23)cc(OC)c1OC
15.2

Give the value of growth reported for the following: COc1ccc(/C=N/C2=C(C#N)C(c3ccccc3)c3ccc4ccccc4c3O2)cc1 (stereo not given)
49.4

Answer with the recorded growth for the molecule listed here: CN1CCc2nc3sc(C(N)=O)c(N)c3c(-c3cccs3)c2C1
27.3

Give the value of growth reported for the following: Cc1ccccc1/C=C/C(=O)c1cccc(OCCCCOc2cccc(C(=O)/C=C/c3ccccc3C)c2)c1
103

Tell me growth reported for C=C1C(=O)O[C@H]2[C@H]1CC/C(COC(=O)C(=O)c1cn(C)c3ccc(Cl)cc13)=C\CC[C@@]1(C)O[C@@H]21
-60.8

Quickly give me recorded growth for CCC(=O)Oc1ccc(-c2ccccc2)cc1Br
110

Let me know recorded growth for O=C(O)c1ccc(-n2cc(/C=N/Nc3ccccc3)c(-c3ccc(F)cc3F)n2)cc1 , thanks.
15.4

Supply growth value. Item: O=C1/C(=C/c2cn(-c3ccccc3)nc2-c2ccccc2)SC(=S)N1C1CCCCC1
108

====

system: CCRF-CEM leukemia; experiment: NCI-60 one-dose screen, 48 h (100 = growth as untreated, 0 = no growth, -100 = all killed); details: 10 µM unless noted
About 83,000 compounds went through this panel and 20% of them were active in at least one assay; those are over-represented in the sample as a whole.
Below: a set of entries, each annotated with reported growth.
// note: answer is a bare numeric in %

Look over these answered cases.
Indicate the recorded growth value for this compound: c1ccc(-c2oc(-c3ccccc3)c(CN3CCCCC3)c2CN2CCCCC2)cc1
24.1

Input COc1ccc(C/C(C)=C(\c2ccc(Cl)cc2)c2ccc(OCCN3CCCCC3)cc2)cc1 , output reported growth.
90.1

Supply growth value. Item: O=C(O)c1cn(C2CC2)c2cc(N3CCN(C(=O)N(c4ccccc4)c4nc(-c5ccccc5)cs4)CC3)c(F)cc2c1=O
10.9

Others:
Output growth of CCOC(=O)c1ccc(NC(=O)c2nc(-c3cc(OC)c(OC)c(OC)c3)n(-c3ccc(Cl)cc3)n2)cc1
90
